# Species: Homo sapiens
# ASSAY_PROTOCOL: Selectivity index, ratio of Ki for recombinant human adenosine A2B receptor to Ki for recombinant human adenosine A1 receptor
RECORDED_ENDPOINT: Ratio Ki

Recorded results for 3 compounds are shown here.
- Cn1c(-c2ccc(O)cc2)nc2c(NC3CCCC3)ncnc21: 1050
- Cn1c(-c2ccccc2)nc2c(N)ncnc21: 339
- CCn1c(-c2ccccc2)nc2c(NC3CCCCC3)ncnc21: 902

[a] CCCn1c(-c2ccccc2)nc2c(NC3CCCCC3)ncnc21
[b] Cn1c(-c2ccccc2)nc2c(NC3CCCC3)ncnc21
Query block: Hello, I am sorting some records. Could you say if a or b has the smaller Ratio Ki value? Pick one and reply with its label.
Result block: a
(a: 197, b: 3040)

###

# TESTED_SYSTEM: Adenosine receptor A2b (Homo sapiens)
# Sequence (P29275 whole entry): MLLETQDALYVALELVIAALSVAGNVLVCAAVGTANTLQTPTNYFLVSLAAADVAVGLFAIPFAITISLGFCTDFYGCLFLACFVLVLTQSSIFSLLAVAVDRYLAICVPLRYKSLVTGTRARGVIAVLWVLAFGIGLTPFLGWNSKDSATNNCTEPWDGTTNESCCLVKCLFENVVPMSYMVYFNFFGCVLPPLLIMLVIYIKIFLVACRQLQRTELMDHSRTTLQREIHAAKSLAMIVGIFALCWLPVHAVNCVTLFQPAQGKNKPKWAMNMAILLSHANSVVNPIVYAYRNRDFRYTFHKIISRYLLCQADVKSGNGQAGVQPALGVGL
# ASSAY_PROTOCOL: Antagonist activity at recombinant human adenosine A2B receptor expressed in CHO cells assessed as inhibition of NECA-induced adenylyl cyclase activity after 20 mins by [alpha-32P]ATP assay
RECORDED_ENDPOINT: Ki (µM)

Recorded results for 5 molecules are shown here.
• Cn1c(-c2cccc(Cl)c2)nc2c(NC3CCCC3)ncnc21 = 2.53
• Cn1c(-c2ccccc2)nc2c(N)ncnc21 = 7.79
• CCn1c(-c2ccccc2)nc2c(NC3CCCCC3)ncnc21 = 9.02
• Cc1cccc(-c2nc3c(NC4CCCC4)ncnc3n2C)c1 = 6.03
• CCn1c(-c2ccccc2)nc2c(NC3CCOC3)ncnc21 (centres undefined) = 11.5

[I] Cn1c(-c2ccccc2)nc2c(NC3CCCC3)ncnc21
[II] CCn1c(-c2ccccc2)nc2c(N)ncnc21
[III] Cn1c(-c2ccccc2)nc2c(NC3CCOC3)ncnc21 (centres undefined)
Query block: Ascending by Ki, please. Sort the labels as requested; that list is your answer.
Result block: II, I, III

###

# TESTED_SYSTEM: Adenosine receptor A3 (Homo sapiens)
# Sequence (P0DMS8 whole entry): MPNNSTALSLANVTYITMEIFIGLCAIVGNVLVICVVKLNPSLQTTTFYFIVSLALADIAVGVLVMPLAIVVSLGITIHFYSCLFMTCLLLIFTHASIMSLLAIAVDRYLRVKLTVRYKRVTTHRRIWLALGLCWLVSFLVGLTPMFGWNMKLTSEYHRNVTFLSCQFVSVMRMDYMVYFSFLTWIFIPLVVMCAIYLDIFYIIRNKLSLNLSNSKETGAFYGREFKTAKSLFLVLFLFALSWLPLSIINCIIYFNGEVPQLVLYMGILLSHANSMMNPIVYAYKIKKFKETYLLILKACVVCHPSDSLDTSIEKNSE
# ASSAY_PROTOCOL: Displacement of [3H]NECA from recombinant human adenosine A3 receptor transfected in CHO cell membranes after 3 hrs by microbeta scintillation counting analysis
RECORDED_ENDPOINT: Ki (nM)

Recorded results for 4 compounds are shown here.
• CCCn1c(-c2ccccc2)nc2c(NC3CCOC3)ncnc21 (configuration not stated) = 2810
• Cc1cccc(-c2nc3c(NC4CCCC4)ncnc3n2C)c1 = 510
• Cn1c(-c2ccccc2)nc2c(NC3CCCC3)ncnc21 = 846
• CCCn1c(-c2ccccc2)nc2c(NC3CCCCC3)ncnc21 = 2360

[1] Cn1c(-c2ccccc2)nc2c(NC3CCCCC3)ncnc21
[2] CCn1c(-c2ccccc2)nc2c(N)ncnc21
[3] Cn1c(-c2ccccc2)nc2c(N)ncnc21
[4] Cn1c(-c2cccc(Cl)c2)nc2c(NC3CCCC3)ncnc21
[5] Cn1c(-c2ccc(F)cc2)nc2c(NC3CCCC3)ncnc21
Query block: // ranking: key=Ki, reverse=True Sort the labels as requested; that list is your answer.
Result block: 3, 2, 1, 5, 4
(3: 14000 nM, 2: 5780 nM, 1: 2370 nM, 5: 1140 nM, 4: 514 nM)

[a] CCn1c(-c2ccccc2)nc2c(NC3CCOC3)ncnc21 (configuration not stated)
[b] CCn1c(-c2ccccc2)nc2c(NC3CCCC3)ncnc21
Query block: Hello, I am sorting some records. Could you say if a or b has the smaller Ki value? Pick one and reply with its label.
Result block: b

###

# Species on record: Homo sapiens
# ASSAY_PROTOCOL: Selectivity index, ratio of Ki for recombinant human adenosine A2A receptor to Ki for recombinant human adenosine A1 receptor
RECORDED_ENDPOINT: Ratio Ki

- CCn1c(-c2ccccc2)nc2c(NC3CCOC3)ncnc21 (configuration not stated): 102
- CCn1c(-c2ccccc2)nc2c(NC3CCC3)ncnc21: 63
- Cn1c(-c2cccnc2)nc2c(NC3CCCC3)ncnc21: 26
- Cn1c(-c2ccccc2)nc2c(NC3CCOC3)ncnc21 (configuration not stated): 229

[1] Cc1cccc(-c2nc3c(NC4CCCC4)ncnc3n2C)c1
[2] CCn1c(-c2ccccc2)nc2c(N)ncnc21
[3] CCCn1c(-c2ccccc2)nc2c(NC3CCCCC3)ncnc21
[4] Cc1ccccc1-c1nc2c(NC3CCCC3)ncnc2n1C
[5] Cn1c(-c2ccc(F)cc2)nc2c(NC3CCCC3)ncnc21
Query block: Ascending by Ratio Ki, please. Sort the labels as requested; that list is your answer.
Result block: 2, 3, 1, 4, 5

[a] CCCn1c(-c2ccccc2)nc2c(NC3CCCC3)ncnc21
[b] Cn1c(-c2ccccc2)nc2c(NC3CCCCC3)ncnc21
[c] Cn1c(-c2ccccc2)nc2c(N)ncnc21
Query block: // ranking: key=Ratio Ki, reverse=True Sort the labels as requested; that list is your answer.
Result block: b, a, c

[a] CCn1c(-c2ccccc2)nc2c(NC3CCCC3)ncnc21
[b] Cn1c(-c2cccc(Cl)c2)nc2c(NC3CCCC3)ncnc21
Query block: Hello, I am sorting some records. Could you say if a or b has the smaller Ratio Ki value? Pick one and reply with its label.
Result block: b
(b: 41, a: 86)

###

# TESTED_SYSTEM: Adenosine receptor A1 (Homo sapiens, UniProt P30542)
# Sequence (P30542 whole entry): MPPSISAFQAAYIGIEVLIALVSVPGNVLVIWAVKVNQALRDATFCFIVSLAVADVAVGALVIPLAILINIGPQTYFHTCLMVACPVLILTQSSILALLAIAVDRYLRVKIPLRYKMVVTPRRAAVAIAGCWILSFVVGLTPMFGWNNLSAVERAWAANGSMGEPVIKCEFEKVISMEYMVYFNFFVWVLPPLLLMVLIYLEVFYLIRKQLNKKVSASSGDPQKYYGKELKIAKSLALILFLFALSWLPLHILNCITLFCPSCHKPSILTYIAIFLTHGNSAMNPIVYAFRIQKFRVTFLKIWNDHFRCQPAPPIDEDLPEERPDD
# ASSAY_PROTOCOL: Displacement of [3H]CCPA from recombinant human adenosine A1 receptor transfected in CHO cell membranes after 3 hrs by microbeta scintillation counting analysis
pKi: −log10 of the molar value.
RECORDED_ENDPOINT: pKi

Recorded results for 5 compounds are shown here.
• Cn1c(-c2cccc(Cl)c2)nc2c(NC3CCCC3)ncnc21 = 8.19
• CCn1c(-c2ccccc2)nc2c(NC3CCOC3)ncnc21 (configuration not stated) = 8.00
• CCn1c(-c2ccccc2)nc2c(NC3CCCCC3)ncnc21 = 8.00
• Cc1ccc(-c2nc3c(NC4CCCC4)ncnc3n2C)cc1 = 8.10
• Cn1c(-c2ccccc2)nc2c(NC3CCOC3)ncnc21 (configuration not stated) = 8.10

[P] Cn1c(-c2ccc(F)cc2)nc2c(NC3CCCC3)ncnc21
[Q] CCCn1c(-c2ccccc2)nc2c(NC3CCCC3)ncnc21
Query block: Hello, I am sorting some records. Could you say if P or Q has the smaller pKi value? Pick one and reply with its label.
Result block: Q
(Q: 8.00, P: 8.21)

###

# TESTED_SYSTEM: Adenosine receptor A3 (Homo sapiens)
# ASSAY_PROTOCOL: Displacement of [3H]NECA from recombinant human adenosine A3 receptor transfected in CHO cell membranes after 3 hrs by microbeta scintillation counting analysis
RECORDED_ENDPOINT: Ki (nM)

[1] Cc1ccc(-c2nc3c(NC4CCCC4)ncnc3n2C)cc1
[2] CCn1c(-c2ccccc2)nc2c(NC3CCCCC3)ncnc21
[3] CCCn1c(-c2ccccc2)nc2c(NC3CCC3)ncnc21
[4] Cn1c(-c2ccccc2)nc2c(NC3CCOC3)ncnc21 (stereo not given)
[5] Cn1c(-c2ccc(Cl)cc2)nc2c(NC3CCCC3)ncnc21
Query block: Using measured Ki, arrange the compounds from above in descending sequence. Sort the labels as requested; that list is your answer.
Result block: 4, 5, 2, 1, 3

###

# TESTED_SYSTEM: Adenosine receptors; A1 & A3 (Homo sapiens) (UniProt P30542+P0DMS8)
# ASSAY_PROTOCOL: Selectivity index, ratio of Ki for recombinant human adenosine A3 receptor to Ki for recombinant human adenosine A1 receptor
RECORDED_ENDPOINT: Ratio Ki

Recorded results for 4 compounds are shown here.
- Cc1ccc(-c2nc3c(NC4CCCC4)ncnc3n2C)cc1: 60
- Cn1c(-c2ccccc2Cl)nc2c(NC3CCCC3)ncnc21: 19
- Cn1c(-c2ccccc2)nc2c(NC3CCCCC3)ncnc21: 416
- Cn1c(-c2ccccc2)nc2c(N)ncnc21: 609

[I] CCCn1c(-c2ccccc2)nc2c(NC3CCCCC3)ncnc21
[II] Cn1c(-c2ccccc2)nc2c(NC3CCOC3)ncnc21 (stereo not given)
Query block: Could you please tell me which of these two has the higher Ratio Ki: I or II ? Pick one and reply with its label.
Result block: II
